All figures here come from patent US5401490A.

The following compounds are listed with their measured tissue uptake at 0.5 h values.
method notes: Tissue distribution of radioactivity after intravenous injection
Type: in vivo, BALB/C mice
conditions: mouse, tumor, iv; 0.50 h, i.v.; read-out: Percent of Injected Dose per Gram, Tumor
State just the number; it will be interpreted in %ID/g.

Task: Return reported tissue uptake at 0.5 h; argument: O=[N+]([O-])c1nccn1[C@@H]1O[C@H](CI)[C@@H](O)[C@@H]1O [IAZA]
Output: 3.48

Could you now look at the following compound, please?
Task: Return reported tissue uptake at 0.5 h; argument: O=[N+]([O-])c1nccn1[C@@H]1O[C@H](CI)[C@H](O)[C@H](O)[C@H]1O [IAZG]
Output: 1.45
